These data points were gathered from the RNAGym collection of RNA variant scans (doi:10.7554/elife.80360).

B1: HDV Ribozyme (parent)
chain: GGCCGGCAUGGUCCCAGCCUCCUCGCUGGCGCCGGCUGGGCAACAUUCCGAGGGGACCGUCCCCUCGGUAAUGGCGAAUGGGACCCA

Variants of: B1
measurement.notes: self-cleavage, relative activity (ratio to wild type); higher = more cleavage; co-transcriptional

{"entry.sequence": "GGCCGGCAAGGUCCCAGCCUCCUCGCCGGCGCCGGCUGGGCAACAUUCCGAGGGGACCGUCCCCUCGGUAAUGGCGAAUGGGACCCA [U9A U27C]", "self-cleavage": 0.795}
{"entry.sequence": "GGCCGGCAUGGUCCCUGCCUCCUCGCUGGCGCCGGCUGGGCAACAUCCCGAGGGGACCGUCCCCUCGGUAAUGGCGAAUGGGACCCA [A16U U47C]", "self-cleavage": 0.72}
{"entry.sequence": "GGCCGGCAUGGUCCCAGCCUCCUCGCUGGCGCUGGCUGGGCAACAUUCCGAGGGGACCGUCCCCUCGGUAAUGGCGAAAGGGACCCA [C33U U79A]", "self-cleavage": 0.684}
{"entry.sequence": "GGCCGGCAUGGUCCCAGCCUCCUCGCUGGCGCCGGCUGGGCAACAUUUCGAGGGGACCGUCCCCUCGGUAACGGCGAAUGGGACCCA [C48U U72C]", "self-cleavage": 0.554}
{"entry.sequence": "GGCCGGCAUGGUCCCAGCCUACUCGCUGGCGCCGUCUGGGCAACAUUCCGAGGGGACCGUCCCCUCGGUAAUGGCGAAUGGGACCCA [C21A G35U]", "self-cleavage": 0.0744}
{"entry.sequence": "GGCCGGCGUGGUCCCAGCCUCCUCGCUGGCGCCGGCUGGGCAACAUUCCGAGCGGACCGUCCCCUCGGUAAUGGCGAAUGGGACCCA [A8G G53C]", "self-cleavage": 1.03}
{"entry.sequence": "GGCCGGCAUGGUCCCAGCCUCCUCGCUGGCGCCGGCUGGGCAAGAUUCCGAGGGGACCAUCCCCUCGGUAAUGGCGAAUGGGACCCA [C44G G59A]", "self-cleavage": 0.636}
{"entry.sequence": "GGCCGGCAUGGUCCCAGCCUCCUCGCUGGCGCCGGCUGGGCAACAUUUCGAGGGGCCCGUCCCCUCGGUAAUGGCGAAUGGGACCCA [C48U A56C]", "self-cleavage": 0.657}
{"entry.sequence": "GGCCGGCAUGGUCCCAGCCUCCUCGCUGUCGCCGGCUGGGCAACAUUCCGAUGGGACCGUCCCCUCGGUAAUGGCGAAUGGGACCCA [G29U G52U]", "self-cleavage": 0.0875}
{"entry.sequence": "GGCCGGCAUGGUCCCAGCCUCCGCGCUGGCGCCGGCUGGGCAACAUUCCGAGGGGACCGUCCCCUCCGUAAUGGCGAAUGGGACCCA [U23G G67C]", "self-cleavage": 0.59}
{"entry.sequence": "GGCCGCCAUGGACCCAGCCUCCUCGCUGGCGCCGGCUGGGCAACAUUCCGAGGGGACCGUCCCCUCGGUAAUGGCGAAUGGGACCCA [G6C U12A]", "self-cleavage": 0}
{"entry.sequence": "GGCCGGCAUGGUCCCAGCCUCCUCGCUGGCGCCGGCUGGGCAACAUUCCGAGGGGACCGUCCCCUCGGUAAUGGCGCAUGGGACCGA [A77C C86G]", "self-cleavage": 0.302}
{"entry.sequence": "GGCCGGCAUGGUCCAAGCCUCCUCGCUGGCGCCGGCUGGGCAACAUUCCGAGGGGACCGUCACCUCGGUAAUGGCGAAUGGGACCCA [C15A C62A]", "self-cleavage": 0.677}
{"entry.sequence": "GGCCGGCAUGGUCCCAGGCACCUCGCUGGCGCCGGCUGGGCAACAUUCCGAGGGGACCGUCCCCUCGGUAAUGGCGAAUGGGACCCA [C18G U20A]", "self-cleavage": 0.161}
{"entry.sequence": "GGCCGGCAUGGUCCCAGCCUCCUCGCCGGCGCCGGCUGGGCAACAUUCCGUGGGGACCGUCCCCUCGGUAAUGGCGAAUGGGACCCA [U27C A51U]", "self-cleavage": 0.804}
{"entry.sequence": "GGCCGGCAUGGUCCCAGCCUCCUCGCUGGCGCCCGCUGGGCAACAUUCCGAGGGGACCGACCCCUCGGUAAUGGCGAAUGGGACCCA [G34C U60A]", "self-cleavage": 0.306}
{"entry.sequence": "GGUCGGCAUGGUCCCAGCCUCCUCGCUCGCGCCGGCUGGGCAACAUUCCGAGGGGACCGUCCCCUCGGUAAUGGCGAAUGGGACCCA [C3U G28C]", "self-cleavage": 0.0449}
{"entry.sequence": "GGCCGGCAUGGUCCCAGCCUCCUCGCUGGCGCCGGCUGGGCAACAUUCCUAGGGGACCGUCCCCUCGGUAAUGGCGAAUGGGUCCCA [G50U A83U]", "self-cleavage": 0.683}
{"entry.sequence": "GGCCGGCAUGGUCCCAGCCUCCUCGCUGCCGCCGGCUGGGCACCAUUCCGAGGGGACCGUCCCCUCGGUAAUGGCGAAUGGGACCCA [G29C A43C]", "self-cleavage": 0.0489}
{"entry.sequence": "GGCCGGCAUGGUCCCAGCCUCCUCGCUGGCGCCGGCUGGGCAACAUUGCGAGGGGACGGUCCCCUCGGUAAUGGCGAAUGGGACCCA [C48G C58G]", "self-cleavage": 1.11}
{"entry.sequence": "GGCCGGCAUGGUCCCAGACACCUCGCUGGCGCCGGCUGGGCAACAUUCCGAGGGGACCGUCCCCUCGGUAAUGGCGAAUGGGACCCA [C18A U20A]", "self-cleavage": 0.0875}
